The measured values listed here are drawn from PubChem BioAssay (NCI).

Test system: HOP-92 NSCLC
Experiment: NCI tumour cell line growth inhibition, 48 h
Parameter: TGI

{"Compound": "O=C(CCc1cc(-c2ccccc2)nc(=S)[nH]1)N(Cc1ccccc1)Cc1ccccc1", "System tested": "HOP-92 NSCLC", "TGI": "> 100 µM"}
{"Compound": "Nc1nc(N(Cc2ccccc2)c2ccccc2)c2cn[nH]c2n1", "System tested": "HOP-92 NSCLC", "TGI": "> 100 µM"}
{"Compound": "COc1ccc(-c2nc(-c3nc4ccc(Cl)cc4[nH]3)c3ccccn23)cc1", "System tested": "HOP-92 NSCLC", "TGI": "6.09 µM"}

# lookup: TGI of O=C(N/C(=C\c1cccc([N+](=O)[O-])c1)c1nc2ccc([N+](=O)[O-])cc2[nH]1)c1ccccc1
60.7 µM

# lookup: TGI of O=C(O)C1CCCN(CCc2c[nH]c3ccccc23)C1 (stereo unspecified)
> 100 µM

# lookup: TGI of [Cl-].[Rh+3].c1cnc2c(c1)ccc1cccnc12.c1cnc2c(c1)ccc1cccnc12.c1cnc2c(c1)ccc1cccnc12
> 100 µM

* * *

Tested on: DU-145 prostate
Assay: NCI tumour cell line growth inhibition, 48 h
Listing: GI50 of selected compounds

# lookup: GI50 of COc1cc2ncn(-c3cc(OCc4cccs4)c(C(N)=O)s3)c2cc1OC
0.935 µM

# lookup: GI50 of Cc1cc(-c2cnn3c(NCC4CC(C)(O)C4)cc(Oc4cccnc4)nc23)ccc1C(=O)NC1CC1 (centres undefined)
2.26 µM

# lookup: GI50 of CS(=O)(=O)CCNCc1ccc(-c2ccc3ncnc(Nc4ccc(OCc5ccccc5)cc4)c3c2)o1
5.3 µM

# lookup: GI50 of OCCCNc1nc(=S)[nH]c2[nH]ncc12
41.3 µM

* * *

Test system: NCI-H460 lung
Experiment: NCI tumour cell line growth inhibition, 48 h
Listing: TGI of selected compounds

{"Compound": "COc1cc2ncnc(Nc3cccc(Cl)c3)c2cc1OC", "System tested": "NCI-H460 lung", "Parameter": "TGI", "Measured value": "40.7 µM"}
{"Compound": "Cc1ccc(C(=O)N(CCCN)C(c2oc3cc(Cl)ccc3c(=O)c2Cc2ccccc2)C(C)C)cc1 (centres undefined)", "System tested": "NCI-H460 lung", "Parameter": "TGI", "Measured value": "1.15 µM"}
{"Compound": "CS(=O)(=O)c1ccc(-n2nc(C(F)(F)F)cc2OC2CCCC2)cc1", "System tested": "NCI-H460 lung", "Parameter": "TGI", "Measured value": "> 100 µM"}
{"Compound": "CCCCCCCC(=O)OCC/C=C/C1OC1C1OC(=O)/C=C\\C=C\\c2nc(oc2C)/C=C(/C)CCC2OC2C1OC(=O)NC(C)=O (centres undefined)", "System tested": "NCI-H460 lung", "Parameter": "TGI", "Measured value": "0.495 µM"}
{"Compound": "c1ccc(CCCCNCc2cc(CNCCCCc3ccccc3)cc(CNCCCCc3ccccc3)c2)cc1", "System tested": "NCI-H460 lung", "Parameter": "TGI", "Measured value": "> 100 µM"}
{"Compound": "N#Cc1c(=O)n(-c2ccccc2)c(O)c2c(N)n[nH]c12", "System tested": "NCI-H460 lung", "Parameter": "TGI", "Measured value": "> 100 µM"}
{"Compound": "O=C(O)c1nn(-c2ccccc2-c2n[nH]c(=O)[nH]c2=O)c(=O)[nH]c1=O", "System tested": "NCI-H460 lung", "Parameter": "TGI", "Measured value": "> 100 µM"}
{"Compound": "OCCCNc1nc(=S)[nH]c2[nH]ncc12", "System tested": "NCI-H460 lung", "Parameter": "TGI", "Measured value": "> 100 µM"}
{"Compound": "CCOC(=O)c1oc2cc3c(c4c2c1-c1ccccc1N4C)C=CC(C)(C)O3", "System tested": "NCI-H460 lung", "Parameter": "TGI", "Measured value": "> 100 µM"}
{"Compound": "O=C(Nc1ccncc1)C(=O)c1cn(S(=O)(=O)c2cccc(F)c2)c2ccccc12", "System tested": "NCI-H460 lung", "Parameter": "TGI", "Measured value": "> 100 µM"}

Please tell me: TGI of Cc1cc2c(cc1C(=O)CCC(=O)O)CC1(C2)Cc2cc(C)c(C(=O)CCC(=O)O)cc2C1 , system NCI-H460 lung?
> 100 µM

Please tell me: TGI of COC(=O)Nc1nc2ccc(Oc3ccc(NC(=O)Nc4cc(C(F)(F)F)ccc4F)cc3)cc2s1 , system NCI-H460 lung?
> 25 µM

Please tell me: TGI of O=C(O)CCNC1CCCCC1 , system NCI-H460 lung?
> 100 µM

Please tell me: TGI of CC(CCC(=O)O)(c1ccc(O)cc1)c1ccc(O)cc1 , system NCI-H460 lung?
> 100 µM

Please tell me: TGI of OC1(c2ccccc2)C2CCN(CC2)C1CN1CCOCC1 (centres undefined) , system NCI-H460 lung?
> 100 µM

Please tell me: TGI of O=c1[nH]c(=O)n(CCOc2ccccc2)cc1Nc1ccccc1 , system NCI-H460 lung?
> 100 µM

Please tell me: TGI of CN(C)/N=C(/CC(O)(C(F)(F)F)C(F)(F)F)c1ccc([N+](=O)[O-])cc1 , system NCI-H460 lung?
> 100 µM

Please tell me: TGI of CC(C)(C)c1cc(CCC(=O)Nc2ccc(Cl)cc2)nc(NC#N)n1 , system NCI-H460 lung?
> 100 µM

Please tell me: TGI of O=C1N=C(SC2OC(CO)C(O)C(O)C2O)S/C1=C\c1ccccc1 (centres undefined) , system NCI-H460 lung?
> 100 µM

Please tell me: TGI of Nc1cccnc1NCC1(CO)CCCC1 , system NCI-H460 lung?
> 100 µM

Please tell me: TGI of O=c1cc(-c2ccccc2)oc2cc(OC/C(=N/O)c3ccccc3)ccc12 , system NCI-H460 lung?
> 50 µM

Please tell me: TGI of COc1cc(Nc2nc3ccccc3nc2-c2cccs2)cc(OC)c1OC , system NCI-H460 lung?
> 100 µM

Please tell me: TGI of c1ccc(-c2cn3c(nc4ccccc43)c(-c3ccccc3)n2)cc1 , system NCI-H460 lung?
> 100 µM

Please tell me: TGI of N#CC12CNCC1CN=N2 (centres undefined) , system NCI-H460 lung?
> 100 µM
